Molecular target: NaV1.7 (Homo sapiens (Human), UniProt Q15858)
Sequence (Q15858 other isoform, or with tags, fused parts or gaps): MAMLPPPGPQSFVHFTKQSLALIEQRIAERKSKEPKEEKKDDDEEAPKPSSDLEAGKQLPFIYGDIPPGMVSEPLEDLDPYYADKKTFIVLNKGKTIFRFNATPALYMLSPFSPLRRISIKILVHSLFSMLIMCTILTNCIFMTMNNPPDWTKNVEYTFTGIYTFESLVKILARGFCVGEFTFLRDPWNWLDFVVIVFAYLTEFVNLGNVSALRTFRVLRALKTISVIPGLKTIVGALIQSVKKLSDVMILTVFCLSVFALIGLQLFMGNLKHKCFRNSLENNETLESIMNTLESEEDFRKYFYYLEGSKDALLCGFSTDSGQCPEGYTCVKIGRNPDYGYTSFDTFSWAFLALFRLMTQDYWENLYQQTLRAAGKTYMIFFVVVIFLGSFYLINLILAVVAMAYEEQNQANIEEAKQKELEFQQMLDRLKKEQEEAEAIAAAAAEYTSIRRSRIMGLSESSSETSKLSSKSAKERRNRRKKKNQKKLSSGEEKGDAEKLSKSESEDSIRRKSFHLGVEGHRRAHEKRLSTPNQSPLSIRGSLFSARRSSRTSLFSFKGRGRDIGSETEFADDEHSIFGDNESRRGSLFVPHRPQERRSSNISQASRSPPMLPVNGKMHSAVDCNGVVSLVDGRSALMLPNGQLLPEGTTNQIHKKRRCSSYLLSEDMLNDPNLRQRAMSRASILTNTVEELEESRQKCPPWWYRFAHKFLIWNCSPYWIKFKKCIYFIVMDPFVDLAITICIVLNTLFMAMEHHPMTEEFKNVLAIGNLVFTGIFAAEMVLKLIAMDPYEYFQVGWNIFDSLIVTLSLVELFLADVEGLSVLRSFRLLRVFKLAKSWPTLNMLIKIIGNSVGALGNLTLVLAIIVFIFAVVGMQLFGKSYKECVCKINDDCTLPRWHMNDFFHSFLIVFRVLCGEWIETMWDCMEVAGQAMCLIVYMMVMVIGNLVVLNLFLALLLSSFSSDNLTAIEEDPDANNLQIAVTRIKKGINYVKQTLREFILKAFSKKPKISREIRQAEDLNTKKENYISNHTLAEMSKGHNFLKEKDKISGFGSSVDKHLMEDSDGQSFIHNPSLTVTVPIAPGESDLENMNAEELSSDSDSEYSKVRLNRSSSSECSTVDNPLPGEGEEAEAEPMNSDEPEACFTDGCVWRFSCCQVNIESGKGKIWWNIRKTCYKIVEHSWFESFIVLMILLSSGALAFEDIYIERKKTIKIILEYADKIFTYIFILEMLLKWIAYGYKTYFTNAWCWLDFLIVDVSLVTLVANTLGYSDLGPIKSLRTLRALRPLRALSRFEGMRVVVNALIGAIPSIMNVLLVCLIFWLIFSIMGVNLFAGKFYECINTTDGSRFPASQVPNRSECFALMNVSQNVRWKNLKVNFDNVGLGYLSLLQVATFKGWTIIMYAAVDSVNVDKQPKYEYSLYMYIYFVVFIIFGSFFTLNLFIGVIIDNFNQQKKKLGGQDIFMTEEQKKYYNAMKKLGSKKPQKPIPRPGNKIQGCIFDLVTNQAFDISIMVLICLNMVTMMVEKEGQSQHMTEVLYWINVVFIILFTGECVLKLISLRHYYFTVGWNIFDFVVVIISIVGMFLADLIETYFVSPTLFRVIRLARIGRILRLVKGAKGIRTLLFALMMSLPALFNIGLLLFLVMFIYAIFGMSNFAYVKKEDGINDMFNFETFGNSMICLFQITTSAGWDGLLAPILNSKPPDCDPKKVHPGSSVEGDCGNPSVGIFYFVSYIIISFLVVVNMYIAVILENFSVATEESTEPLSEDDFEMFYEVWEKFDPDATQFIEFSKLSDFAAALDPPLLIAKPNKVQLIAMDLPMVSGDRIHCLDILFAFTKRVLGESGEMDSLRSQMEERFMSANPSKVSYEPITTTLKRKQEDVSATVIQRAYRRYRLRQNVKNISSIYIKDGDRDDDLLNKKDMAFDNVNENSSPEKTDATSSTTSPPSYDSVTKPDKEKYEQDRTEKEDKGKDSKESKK
Sequence (Q07699 19-218 partner): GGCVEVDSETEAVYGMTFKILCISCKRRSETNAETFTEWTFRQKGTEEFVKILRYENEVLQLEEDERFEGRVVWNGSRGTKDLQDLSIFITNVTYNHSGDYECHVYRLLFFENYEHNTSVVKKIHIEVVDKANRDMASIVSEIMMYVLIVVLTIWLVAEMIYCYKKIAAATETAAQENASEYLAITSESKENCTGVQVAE
Experiment: NaV flux assay, inhibition of NaV1.7
Type: cell-based
Conditions: NaV flux data, included when EP data is not available
MEASUREMENT_NAME: pIC50
Quick note: pIC50 values are minus log10 of concentrations in mol/L.

Sample answers from the record:
                                   compound  measurement_name  measured_number
0  Cc1ccc([C@@H]2CCNC[C@H]2COc2cc(F)c(S(=O)(=O)Nc3ncns3)cc2F)cc1 (relative stereo)             pIC50             6.41
1  O=S(=O)(Nc1ncns1)c1cc(F)c(OC[C@@H]2C[C@H](O)CCC2c2ccc(Cl)cc2)cc1F (stereo partly shown)             pIC50             6.37
2  COc1ccc([C@@H]2CCNC[C@H]2COc2cc(F)c(S(=O)(=O)Nc3ncns3)cc2F)cc1 (relative stereo)             pIC50             6.88
3  O=S(=O)(Nc1ncns1)c1cc(F)c(OCC2CNCCN2c2ccc(Cl)cc2)cc1F (stereo not shown)             pIC50             6.49
4  Cn1cns/c1=N/S(=O)(=O)c1cc(F)c(OC[C@@H]2CNCC[C@H]2c2ccc(Cl)cc2)cc1F (relative stereo)             pIC50             5.39

**Query** Return reported pIC50; argument: O=S(=O)(Nc1ncns1)c1cc(F)c(OC[C@@H]2CNCC[C@H]2c2ccc(F)c(C(F)(F)F)c2)cc1F (relative stereo)
**Result** 7.42

**Query** Return reported pIC50; argument: O=C1CC[C@@H](c2ccc(Cl)cc2)[C@H](COc2cc(F)c(S(=O)(=O)Nc3ncns3)cc2F)C1 (relative stereo)
**Result** 6.61

====

// reported IC50 per item
Target: NaV1.7 (Homo sapiens (Human))
Test: Patch voltage clamp electrophysiology (EP), affinity for the inactivated state of Nav1.7
Type: cell-based
Conditions: HEK-293 cells expressing human Nav1.7 with β1 subunit, read-out: NaV1.7 (IC50 class)

Sample answers from the record:
>>> print(df.to_string())
                                   compound          result
0  NC(=O)N1CC[C@@H](c2ccc(F)c(F)c2)[C@H](COc2cc(F)c(S(=O)(=O)Nc3ncc(Cl)s3)cc2F)C1 (relative stereo)  100 to 1000 nM
1  CN1CC[C@@H](c2ccc(Cl)cc2)[C@H](COc2cc(F)c(S(=O)(=O)Nc3ncns3)cc2F)C1 [Example 86]  100 to 1000 nM
2  Cc1nsc(NS(=O)(=O)c2cc(F)c(OC[C@@H]3CNCC[C@H]3c3ccc(Cl)cc3)cc2F)n1 (relative stereo)  100 to 1000 nM
3  O=S(=O)(Nc1nncs1)c1cc(F)c(OC[C@@H]2CNCC[C@H]2c2ccc(Cl)cc2)cc1F (relative stereo)        < 100 nM
4  O=S(=O)(Nc1ncns1)c1cc(F)c(OC[C@@H]2CN(CC(F)(F)F)CC[C@H]2c2ccc(Cl)cc2)cc1F (relative stereo)  100 to 1000 nM
5  O=S(=O)(Nc1ncns1)c1cc(F)c(OC[C@@H]2CNCC[C@H]2c2ccc(Cl)cc2)cc1F (relative stereo) [Example 44]        < 100 nM
6  O=S(=O)(Nc1ncccn1)c1cc(F)c(OC[C@@H]2CNCC[C@H]2c2ccc(Cl)cc2)cc1F (relative stereo)        < 100 nM
7  O=S(=O)(Nc1ncns1)c1cc(F)c(OC[C@@H]2CN(CC(F)F)CC[C@H]2c2ccc(Cl)cc2)cc1F (relative stereo)        < 100 nM

**Query** Return reported IC50; argument: CN1CC[C@@H](c2ccc(Cl)cc2)[C@H](COc2cc(F)c(S(=O)(=O)Nc3ncns3)cc2F)C1 (relative stereo) [Example 70]
**Result** < 100 nM

**Query** Return reported IC50; argument: O=S(=O)(Nc1ncns1)c1cc(F)c(OC[C@@H]2CN(CCF)CC[C@H]2c2ccc(Cl)cc2)cc1F (relative stereo)
**Result** < 100 nM

**Query** Return reported IC50; argument: O=S(=O)(Nc1ncc(Cl)s1)c1cc(F)c(OC[C@@H]2CNCC[C@H]2c2ccc(F)c(F)c2)cc1F (relative stereo)
**Result** < 100 nM

====

Biological target: NaV1.7 (Homo sapiens (Human))
Assay: Patch voltage clamp electrophysiology (EP), affinity for the inactivated state of Nav1.7
Type: cell-based
Conditions: HEK-293 cells expressing human Nav1.7 with β1 subunit, read-out: NaV1.7 IC50
pIC50: −log10 of the molar value.
Label True for high-side pIC50 (at or above 7) and False for low-side pIC50 (below it).

In [3]: df
Out[3]:
                                   compound                  target_entity  group
0  CN1CC[C@H](c2ccc(Cl)cc2)[C@@H](COc2cc(F)c(S(=O)(=O)Nc3ncns3)cc2F)C1 [Example 85]  NaV1.7 (Homo sapiens (Human))   True
1  O=S(=O)(Nc1ncns1)c1cc(F)c(OCC2(F)CNCCC2c2ccc(F)cc2)cc1F (stereo not shown) [Example 47]  NaV1.7 (Homo sapiens (Human))   True
2  NC(=O)N1CC[C@@H](c2ccc(F)c(F)c2)[C@H](COc2cc(F)c(S(=O)(=O)Nc3ncc(Cl)s3)cc2F)C1 (relative stereo) [Example 89]  NaV1.7 (Homo sapiens (Human))  False
3  O=S(=O)(Nc1ncns1)c1cc(F)c(OC[C@@H]2CN(CC(F)F)CC[C@H]2c2ccc(Cl)cc2)cc1F (relative stereo) [Example 83]  NaV1.7 (Homo sapiens (Human))   True
4  Cc1nsc(NS(=O)(=O)c2cc(F)c(OC[C@@H]3CNCC[C@H]3c3ccc(Cl)cc3)cc2F)n1 (relative stereo) [Example 52]  NaV1.7 (Homo sapiens (Human))  False
5  N#Cc1cc(S(=O)(=O)Nc2ncns2)ccc1OC[C@@H]1CNCC[C@H]1c1ccc(Cl)cc1 (relative stereo) [Example 58]  NaV1.7 (Homo sapiens (Human))   True
6  O=S(=O)(Nc1ncns1)c1cc(F)c(OC[C@@H]2CNCC[C@H]2c2ccc(F)cc2)cc1F [Example 46]  NaV1.7 (Homo sapiens (Human))  False
7  CN1CC[C@@H](c2ccc(Cl)cc2)[C@H](COc2cc(F)c(S(=O)(=O)Nc3ncns3)cc2F)C1 (relative stereo) [Example 70]  NaV1.7 (Homo sapiens (Human))   True

**Query** Given O=S(=O)(Nc1cccnn1)c1cc(F)c(OC[C@@H]2CNCC[C@H]2c2ccc(Cl)cc2)cc1F (relative stereo) [Example 65] , state whether its pIC50 is at least 7.
**Result** False

**Query** Given O=S(=O)(Nc1ncns1)c1cc(F)c(OC[C@H]2CNCC[C@H]2c2ccc(Cl)cc2)cc1F (relative stereo) [Example 66] , state whether its pIC50 is at least 7.
**Result** False

**Query** Given O=S(=O)(Nc1ncc(Cl)s1)c1cc(F)c(OC[C@@H]2CNCC[C@H]2c2ccc(F)c(F)c2)cc1F (relative stereo) [Example 61] , state whether its pIC50 is at least 7.
**Result** True

====

Biological target: NaV1.7 (Homo sapiens (Human), UniProt Q15858)
Experiment: Patch voltage clamp electrophysiology (EP), affinity for the inactivated state of Nav1.7
Assay type: cell-based
Conditions: HEK-293 cells expressing human Nav1.7 with β1 subunit, read-out: NaV1.7 IC50
MEASUREMENT_NAME: pIC50
Quick note: pIC50 values are minus log10 of concentrations in mol/L.

Sample answers from the record:
>>> df
                                   molecule  measured_number
0  O=S(=O)(Nc1ncns1)c1cc(F)c(OC[C@H]2CNCC[C@@H]2c2ccc(Cl)cc2)cc1F             8.96
1  CC(C)(C)OC(=O)N1CC[C@@H](c2ccc(Cl)cc2)[C@H](COc2cc(F)c(S(=O)(=O)Nc3ncns3)cc2F)C1 (relative stereo)             6.79
2  O=S(=O)(Nc1ncns1)c1cc(F)c(OC[C@@H]2CN(CC(F)(F)F)CC[C@H]2c2ccc(Cl)cc2)cc1F (relative stereo)             6.89

**Query** Return reported pIC50; argument: O=S(=O)(Nc1ncns1)c1cc(F)c(OC[C@@H]2CCCC[C@H]2c2ccc(F)cc2)cc1F (relative stereo)
**Result** 6.55

**Query** Return reported pIC50; argument: O=S(=O)(Nc1ncns1)c1cc(F)c(OC[C@@H]2CNC[C@H]2c2ccc(Cl)cc2)cc1F (relative stereo)
**Result** 7.30

**Query** Return reported pIC50; argument: O=S(=O)(Nc1ncccn1)c1cc(F)c(OC[C@@H]2CNCC[C@H]2c2ccc(Cl)cc2)cc1F (relative stereo)
**Result** 7.27

**Query** Return reported pIC50; argument: CN1CC[C@@H](c2ccc(Cl)cc2)[C@H](COc2cc(F)c(S(=O)(=O)Nc3ncns3)cc2F)C1 [Example 86]
**Result** 6.48

**Query** Return reported pIC50; argument: O=S(=O)(Nc1ncns1)c1cc(F)c(OC[C@@H]2CNCC[C@H]2c2ccc(Cl)c(Cl)c2)cc1F (relative stereo)
**Result** 9.10

**Query** Return reported pIC50; argument: O=S(=O)(Nc1ncccn1)c1cc(F)c(OC[C@@H]2CNCC[C@H]2c2ccc(F)cc2)cc1F (relative stereo)
**Result** 6.49

**Query** Return reported pIC50; argument: O=S(=O)(Nc1ccc(F)cn1)c1cc(F)c(OC[C@@H]2CNCC[C@H]2c2ccc(Cl)cc2)cc1F (relative stereo)
**Result** 7.15
